These data points were gathered from ChEMBL document CHEMBL3525955.

- test-details: Drug metabolism in pig liver microsomes assessed as substrate inhibition of IRI-O-4'-monoglucuronide formation incubated for 5 mins prior to UDPGA addition measured after 90 mins by Eadie-Hoftsee plot analysis
- Assay type: ADME, Sus scrofa
recorded-metric: pKi
In textbook form, pKi equals minus log to base ten of the concentration in mol/L.

Q: Could you share which pKi value was measured for `O=c1c(-c2ccc(O)cc2)coc2cc3c(c(O)c12)OCO3` ?
A: 4.31

###

- System: Liver microsome
- test-details: Drug metabolism in Sprague-Dawley rat liver microsomes assessed as IRI-O-5-monoglucuronide formation incubated for 5 mins prior to UDPGA addition measured after 90 mins by Eadie-Hoftsee plot analysis
- Assay type: ADME
- condition-label: 1.5 h
recorded-metric: Km (µM)
Return type: number; implicit unit µM.

Q: Sample `O=c1c(-c2ccc(O)cc2)coc2cc3c(c(O)c12)OCO3` — what was its Km?
A: 34
